target: D2 (Oryctolagus cuniculus); test: cell-based
Sequence (G1T1Q0 1-443): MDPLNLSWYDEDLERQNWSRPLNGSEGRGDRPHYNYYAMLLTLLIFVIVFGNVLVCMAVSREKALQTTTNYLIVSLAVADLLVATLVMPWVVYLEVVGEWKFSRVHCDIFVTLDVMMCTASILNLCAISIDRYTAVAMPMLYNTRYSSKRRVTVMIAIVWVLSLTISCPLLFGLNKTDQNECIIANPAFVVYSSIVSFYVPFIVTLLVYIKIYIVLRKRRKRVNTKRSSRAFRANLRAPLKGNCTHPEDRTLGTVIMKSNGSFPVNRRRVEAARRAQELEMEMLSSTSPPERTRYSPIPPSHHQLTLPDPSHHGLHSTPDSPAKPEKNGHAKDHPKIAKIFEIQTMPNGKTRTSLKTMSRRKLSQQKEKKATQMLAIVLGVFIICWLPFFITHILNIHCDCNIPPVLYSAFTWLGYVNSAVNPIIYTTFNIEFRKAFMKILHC
endpoint: EC50
In your response, put the unit directly after the numeric value.

Ask: Requested field: EC50. Item: `CCCN(CCc1ccc(O)cc1)CCc1ccc(O)c2[nH]c(=O)ccc12`
Result: 12 nM
